- Target Or System: 5-HT1A (Rattus norvegicus, UniProt P19327)
- Protocol Notes: Generalization to discriminative stimulus properties induced by 8-OHDPAT in rats (agonism)
- Type: in vivo, Male Wistar rats
- Set-up: from tissue; host or cells: whole living animal, male Wistar rats, s.c. dosing
- Test Settings: rat, sc, usually 30 or 45 min before test; substituted for 8-OHDPAT; per cent drug response; read-out: ED50, 8-OH DPAT cue agonism
- Text: GENERALIZATION TO DISCRIMINATIVE STIMULUS PROPERTIES INDUCED BY 8-OHDPAT IN RATS. This test model is used to determine the agonist effects of a test compound on 5-HT1A receptors in vivo. A related method is described by Tricklebank, M. D., J. Neill, E. J. Kidd and J. R. Fozard, Eur. J. Pharmacol. 133, 37-56, 1987; Arnt, J., Pharmacology & Toxicology 64, 165-172, 1989. […]
Measured Endpoint: ED50 (µmol/kg)
Answer format: numeric, µmol/kg implied, no suffix.

Below are worked cases with known answers.
O=C1c2ccccc2S(=O)(=O)N1CCCCN1CCN(c2ncccn2)CC1 [ipsapirone, reference compound] : 1.8
O=C1CC2(CCCC2)CC(=O)N1CCCCN1CCN(c2ncccn2)CC1 [buspirone, reference compound] : 0.62

Task item: Which ED50 is reported for this compound? c1ccc2c(c1)NCC2CCCCN1CCN(c2cccc3c2OCC3)CC1 (stereo not shown) [Compound 3i]
Reply: 2.7

###

- Target Or System: serotonin 5-HT1A receptors (Rattus norvegicus, UniProt P19327)
- Sequence (P19327 1-422): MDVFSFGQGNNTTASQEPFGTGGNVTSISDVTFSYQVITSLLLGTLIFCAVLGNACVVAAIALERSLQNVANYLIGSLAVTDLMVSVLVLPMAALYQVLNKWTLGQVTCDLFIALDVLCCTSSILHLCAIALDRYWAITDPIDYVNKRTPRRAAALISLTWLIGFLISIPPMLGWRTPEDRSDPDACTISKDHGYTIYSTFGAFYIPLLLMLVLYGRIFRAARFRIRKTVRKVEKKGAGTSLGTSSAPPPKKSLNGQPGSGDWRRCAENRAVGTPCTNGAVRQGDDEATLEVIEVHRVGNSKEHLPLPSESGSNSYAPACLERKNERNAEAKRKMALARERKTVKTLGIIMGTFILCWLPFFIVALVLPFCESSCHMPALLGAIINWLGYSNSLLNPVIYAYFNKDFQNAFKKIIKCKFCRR
pIC50: −log10 of the molar value.
Measured Endpoint: pIC50

COc1ccccc1N1CCN(CCCCc2c[nH]c3ccccc23)CC1 : 7.77
CSc1ccccc1N1CCN(CCCCC2CNc3ccccc32)CC1 (stereo not shown) : 7.85

1. c1ccc2c(c1)NCC2CCCCN1CCN(c2cccc3c2OCC3)CC1 (stereo not shown)
2. COc1cccc(N2CCN(CCCCC3CNc4ccccc43)CC2)c1OC (stereo not shown)
Task item: Out of 1 and 2 , name the one with the higher pIC50. Answer by stating the label of the chosen item.
Reply: 1
(1: 8.03, 2: 7.05)

###

- Target Or System: 5-HT1A (Rattus norvegicus, UniProt P19327)
- Sequence (P19327 1-422): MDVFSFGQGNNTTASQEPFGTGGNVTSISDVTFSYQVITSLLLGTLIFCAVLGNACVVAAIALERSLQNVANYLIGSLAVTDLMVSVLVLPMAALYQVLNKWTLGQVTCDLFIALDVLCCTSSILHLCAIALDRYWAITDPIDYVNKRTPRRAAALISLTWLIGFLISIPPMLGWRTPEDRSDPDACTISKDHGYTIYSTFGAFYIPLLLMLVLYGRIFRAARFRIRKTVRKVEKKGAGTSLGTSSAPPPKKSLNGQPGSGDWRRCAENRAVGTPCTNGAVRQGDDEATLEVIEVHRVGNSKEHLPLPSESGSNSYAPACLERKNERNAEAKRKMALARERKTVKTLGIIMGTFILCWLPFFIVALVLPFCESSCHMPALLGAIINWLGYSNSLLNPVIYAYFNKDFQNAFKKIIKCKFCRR
- Protocol Notes: Inhibition of 5-methoxy-N,N-dimethyltryptamine (5-MeODMT) induced 5-HT syndrome in rats
- Type: in vivo, Male Wistar rats
- Design: Male Wistar rats (Mol:Wist) weighing 170-240 g are used; from tissue; host or cells: whole living animal, male Wistar rats (Mol:Wist), s.c. dosing
- Test Settings: rat, sc, 30 min before 5-MeODMT 5 mg/kg s.c.; per cent inhibition of piano playing syndrome
Measured Endpoint: ED50 (µmol/kg)

Below are worked cases with known answers.
COc1ccccc1N1CCN(CCCCC2CNc3ccccc32)CC1 (centres unmarked) [Compound 3a] : 1.9
c1ccc2c(c1)NCC2CCCCN1CCN(c2cccc3c2OCCO3)CC1 (centres unmarked) [Compound 3j] : 3.1

a. COc1ccccc1N1CCN(CCCCC2CNc3ccccc32)CC1 (single isomer, unassigned; (+)) [Compound 7a]
b. c1ccc2c(c1)NCC2CCCCN1CCN(c2cccc3c2OCC3)CC1 (centres unmarked) [Compound 3i]
c. CCOc1ccccc1N1CCN(CCCCC2CNc3ccccc32)CC1 (centres unmarked) [Compound 3c]
Task item: Order by ED50, ascending. The response must list the labels following the requested ordering.
Reply: c, a, b
(c: 0.48 µmol/kg, a: 2.1 µmol/kg, b: 4 µmol/kg)
